# test_protocol: Inhibitory activity (proliferation) against human peripheral blood mononuclear cells stimulated with Phytohemagglutininin-L (value range: 0.175-0.327)
# Type: functional
observation_type: IC50 (µM)

{"entry_smiles": "O=C(O)C1=C(C(=O)Nc2c(F)c(F)c(-c3cccc(OC(F)(F)F)c3)c(F)c2F)CCC1", "result_number": 0.327}

----------
# study_target: Dihydroorotate dehydrogenase (quinone), mitochondrial (Homo sapiens)
# Sequence (Q02127 whole entry, the tested form may be a part): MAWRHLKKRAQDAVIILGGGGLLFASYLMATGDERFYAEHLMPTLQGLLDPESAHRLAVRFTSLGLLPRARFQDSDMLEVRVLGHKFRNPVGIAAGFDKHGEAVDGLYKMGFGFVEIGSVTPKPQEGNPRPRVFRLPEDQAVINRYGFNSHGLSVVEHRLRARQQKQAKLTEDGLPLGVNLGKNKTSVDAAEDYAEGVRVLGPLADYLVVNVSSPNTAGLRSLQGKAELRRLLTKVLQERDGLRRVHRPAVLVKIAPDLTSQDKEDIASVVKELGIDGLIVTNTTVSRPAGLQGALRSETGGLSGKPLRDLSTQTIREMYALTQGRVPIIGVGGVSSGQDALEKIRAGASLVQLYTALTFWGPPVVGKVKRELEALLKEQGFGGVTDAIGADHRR
# test_protocol: Inhibition of N-terminally truncated recombinant human dihydroorotate dehydrogenase using in vitro enzyme assay
pIC50: −log10 of the molar value.
Let's look at some compounds and their measured pIC50.

{"compound": "O=C(O)C1=C(C(=O)Nc2c(F)cc(-c3cccc(OC(F)(F)F)c3)cc2F)CSC1", "study_target": "Dihydroorotate dehydrogenase (quinone), mitochondrial (Homo sapiens)", "pIC50": 7.82}
{"compound": "O=C(O)C1=C(C(=O)Nc2c(F)c(F)c(-c3cccc(OC(F)(F)F)c3)c(F)c2F)CSC1", "study_target": "Dihydroorotate dehydrogenase (quinone), mitochondrial (Homo sapiens)", "pIC50": 8.40}
{"compound": "O=C(O)C1=C(C(=O)Nc2ccc(OCc3c(F)cccc3Cl)c(Cl)c2)COC1", "study_target": "Dihydroorotate dehydrogenase (quinone), mitochondrial (Homo sapiens)", "pIC50": 7.39}
{"compound": "O=C(O)C1=C(C(=O)Nc2cc(Br)c(OCc3ccccc3)c(Br)c2)CCC1", "study_target": "Dihydroorotate dehydrogenase (quinone), mitochondrial (Homo sapiens)", "pIC50": 6.90}
{"compound": "COc1cccc(-c2ccc(NC(=O)C3=C(C(=O)O)CSC3)c(F)c2)c1", "study_target": "Dihydroorotate dehydrogenase (quinone), mitochondrial (Homo sapiens)", "pIC50": 6.88}
{"compound": "COc1cccc(-c2ccc(NC(=O)C3=C(C(=O)O)C(O)CC3)c(F)c2)c1 (stereo not given)", "study_target": "Dihydroorotate dehydrogenase (quinone), mitochondrial (Homo sapiens)", "pIC50": 6.17}
{"compound": "O=C(O)C1=C(C(=O)Nc2ccc(-c3ccccc3)cc2)CS(=O)(=O)C1", "study_target": "Dihydroorotate dehydrogenase (quinone), mitochondrial (Homo sapiens)", "pIC50": 5.42}
{"compound": "COc1cccc(-c2ccc(NC(=O)C3=C(C(=O)O)COC3)c(F)c2)c1", "study_target": "Dihydroorotate dehydrogenase (quinone), mitochondrial (Homo sapiens)", "pIC50": 6.44}
{"compound": "O=C(O)C1=C(C(=O)Nc2ccc(OCc3ccccc3)cc2)CCC1", "study_target": "Dihydroorotate dehydrogenase (quinone), mitochondrial (Homo sapiens)", "pIC50": 5.70}
{"compound": "O=C(O)C1=C(C(=O)Nc2c(F)cc(-c3cccc(OC(F)(F)F)c3)cc2F)COC1", "study_target": "Dihydroorotate dehydrogenase (quinone), mitochondrial (Homo sapiens)", "pIC50": 6.69}
